The measured values listed here are drawn from ChEMBL document CHEMBL3286254.

Assay: Metabolic stability in rat liver microsomes assessed as compound remaining after 20 mins
Type: ADME
Settings: read-out: Stability
measure: remaining at 20 min (%)
Return type: number; implicit unit %.

## Input Which remaining at 20 min is reported for this compound? N=C(N)c1ccc(Oc2cc(NC(=O)[C@H]3CC[C@H](N)CC3)cc(Oc3ccc(C(=N)N)cc3)c2)cc1
## Output 91

## Input Follow-up entry: N=C(N)c1ccc(Oc2cc(Oc3ccc(C(=N)N)cc3)cc(C(=O)O[C@H]3CC[C@H](N)CC3)c2)cc1
## Output 34

## Input Follow-up entry: N=C(N)c1ccc(Oc2cc(Oc3ccc(C(=N)N)cc3)cc(C(=O)N[C@H]3CC[C@H](N)CC3)c2)cc1
## Output 100

---

Target: Suppressor of tumorigenicity 14 protein (Homo sapiens)
Sequence (Q9Y5Y6 whole entry): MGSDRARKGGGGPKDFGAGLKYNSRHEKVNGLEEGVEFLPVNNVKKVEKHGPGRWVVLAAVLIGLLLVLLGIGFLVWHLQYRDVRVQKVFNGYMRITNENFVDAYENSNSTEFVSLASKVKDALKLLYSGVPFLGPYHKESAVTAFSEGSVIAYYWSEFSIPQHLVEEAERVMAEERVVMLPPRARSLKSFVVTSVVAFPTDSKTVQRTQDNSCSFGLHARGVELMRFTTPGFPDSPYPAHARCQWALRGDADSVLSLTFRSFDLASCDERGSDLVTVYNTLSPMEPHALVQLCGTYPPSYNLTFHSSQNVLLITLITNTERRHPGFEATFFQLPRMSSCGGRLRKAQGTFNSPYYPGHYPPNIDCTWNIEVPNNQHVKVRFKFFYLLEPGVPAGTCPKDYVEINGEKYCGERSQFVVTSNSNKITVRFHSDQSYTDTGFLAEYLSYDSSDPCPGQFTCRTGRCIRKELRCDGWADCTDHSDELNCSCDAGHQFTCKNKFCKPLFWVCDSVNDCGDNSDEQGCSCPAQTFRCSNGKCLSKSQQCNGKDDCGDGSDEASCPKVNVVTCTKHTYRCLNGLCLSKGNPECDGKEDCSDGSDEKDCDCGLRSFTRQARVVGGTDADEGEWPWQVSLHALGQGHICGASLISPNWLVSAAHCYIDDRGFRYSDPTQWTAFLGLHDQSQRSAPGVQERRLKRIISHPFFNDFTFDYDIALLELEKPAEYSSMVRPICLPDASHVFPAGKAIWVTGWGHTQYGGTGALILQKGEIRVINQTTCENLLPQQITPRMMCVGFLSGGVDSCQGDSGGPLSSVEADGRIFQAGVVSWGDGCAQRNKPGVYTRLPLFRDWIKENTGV
Assay: Inhibition of recombinant matriptase (unknown origin) using Boc-Gln-Ala-Arg-7-amido-4-methyl coumarin hydrobromide
measure: Ki (nM)
Return type: number; implicit unit nM.

## Input Which Ki is reported for this compound? N=C(N)c1ccc(Oc2cc(NC(=O)C3CCN(CCN)CC3)cc(Oc3ccc(C(=N)N)cc3)c2)cc1
## Output 18

## Input Follow-up entry: N=C(N)c1ccc(Oc2cc(Oc3ccc(CN)cc3)cc(C(=O)N[C@H]3CC[C@H](N)CC3)c2)cc1
## Output 40

## Input Follow-up entry: N=C(N)c1ccc(COc2cc(Oc3ccc(C(=N)N)cc3)cc(C(=O)N[C@H]3CC[C@H](N)CC3)c2)cc1
## Output 10

## Input Follow-up entry: N=C(N)c1ccc(Oc2cc(Oc3ccc(C(=N)N)cc3)cc(C(=O)N3CCc4ccccc4C3)c2)cc1
## Output 730

---

Molecular target: Cytochrome P450 2C9 (Homo sapiens, UniProt P11712)
Sequence (P11712 whole entry): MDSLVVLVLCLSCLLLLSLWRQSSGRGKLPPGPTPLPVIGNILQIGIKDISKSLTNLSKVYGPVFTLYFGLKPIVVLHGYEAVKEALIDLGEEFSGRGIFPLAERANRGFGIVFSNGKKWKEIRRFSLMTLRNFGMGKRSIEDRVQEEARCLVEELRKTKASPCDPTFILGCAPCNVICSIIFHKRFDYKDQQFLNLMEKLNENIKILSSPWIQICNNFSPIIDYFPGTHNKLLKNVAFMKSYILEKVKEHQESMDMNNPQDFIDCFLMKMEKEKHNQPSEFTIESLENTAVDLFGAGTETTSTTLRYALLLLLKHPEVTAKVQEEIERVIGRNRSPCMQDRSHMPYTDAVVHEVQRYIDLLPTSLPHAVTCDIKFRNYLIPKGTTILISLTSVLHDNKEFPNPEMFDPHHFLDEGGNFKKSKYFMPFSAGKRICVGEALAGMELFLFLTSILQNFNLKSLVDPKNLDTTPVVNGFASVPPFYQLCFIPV
measure: IC50

## Input Which IC50 is reported for this molecule? N=C(N)c1ccc(Oc2cc(Oc3ccc(C(=N)N)cc3)cc(C(=O)O[C@H]3CC[C@H](N)CC3)c2)cc1
## Output > 30 µM

---

Record: Ki reported on Prothrombin (Homo sapiens, UniProt P00734).
Return type: number; implicit unit nM.

## Input Which Ki is reported for this compound? CC1CCC(NC(=O)c2cc(Oc3ccc(C(=N)N)cc3)cc(Oc3ccc(C(=N)N)cc3)c2)CC1 (stereo not given)
## Output 744

## Input Follow-up entry: N=C(N)c1ccc(COc2cc(Oc3ccc(C(=N)N)cc3)cc(C(=O)N[C@H]3CC[C@H](N)CC3)c2)cc1
## Output 2810

## Input Follow-up entry: N=C(N)c1ccc(Oc2cc(Oc3ccc(C(=N)N)cc3)cc(C(=O)NC3CCCCC3)c2)cc1
## Output 1640

## Input Follow-up entry: N=C(N)c1ccc(Oc2cc(Oc3ccc(C(=N)N)cc3)cc(C(=O)O[C@H]3CC[C@H](N)CC3)c2)cc1
## Output 2470

## Input Follow-up entry: N=C(N)c1ccc(Oc2cc(N)cc(Oc3ccc(C(=N)N)cc3)c2)cc1
## Output 2820

## Input Follow-up entry: N=C(N)c1ccc(Oc2cc(Oc3ccc(C(=N)N)cc3)cc(C(=O)Nc3ccc(F)cc3)c2)cc1
## Output 2100

## Input Follow-up entry: N=C(N)c1ccc(Oc2cc(Oc3ccc(C(=N)N)cc3)cc(C(=O)NC3CCN(CCCN)CC3)c2)cc1
## Output 1280

## Input Follow-up entry: N=C(N)c1ccc(Oc2cc(Oc3ccc(C(=N)N)cc3)cc(C(=O)NC3CCC(O)CC3)c2)cc1 (stereo not given)
## Output 1240

## Input Follow-up entry: N=C(N)c1ccc(Oc2cc(Oc3ccc(C(=N)N)cc3)cc(C(=O)N[C@H]3CC[C@H](N)CC3)c2)cc1
## Output 2100

## Input Follow-up entry: CC1CCC(C(=O)Nc2cc(Oc3ccc(C(=N)N)cc3)cc(Oc3ccc(C(=N)N)cc3)c2)CC1 (stereo not given)
## Output 2340

## Input Follow-up entry: N=C(N)c1ccc(Oc2cc(Oc3ccc(C(=N)N)cc3)cc(C(=O)NC3CCN(CCO)CC3)c2)cc1
## Output 1780

## Input Follow-up entry: N=C(N)c1ccc(Oc2cc(Oc3ccc(NC(=O)CCN)cc3)cc(C(=O)N[C@H]3CC[C@H](N)CC3)c2)cc1
## Output 3250

## Input Follow-up entry: N=C(N)c1ccc(Oc2cc(Oc3ccc(C(=N)N)cc3)cc(C(=O)N3CCc4ccccc4C3)c2)cc1
## Output 1560

## Input Follow-up entry: N=C(N)c1ccc(Oc2cc(NC(=O)C3CCN(CCN)CC3)cc(Oc3ccc(C(=N)N)cc3)c2)cc1
## Output 2530

## Input Follow-up entry: N=C(N)c1ccc(Oc2cc(Oc3ccc(C(=N)N)cc3)cc(C(=O)NCC3CCCCC3)c2)cc1
## Output 2410

---

Molecular target: Trypsin (Homo sapiens, UniProt P07477+P07478+P35030)
Assay: Inhibition of human pancreas Trypsin using Boc-Gln-Ala-Arg-7-amido-4-methyl coumarin hydrobromide
Type: protein assay
Binary call on Ki with cut-off 0.9 µM: strictly below means 1.0, and equality or higher means 0.0.

## Input Identify whether the compound N=C(N)c1ccc(Oc2cc(NC(=O)C3CCN(C(=O)CCN)CC3)cc(Oc3ccc(C(=N)N)cc3)c2)cc1 records Ki below 0.9 µM.
## Output 1.0

## Input Follow-up entry: N=C(N)c1ccc(Oc2cc(OCc3ccc(Br)cc3)cc(C(=O)N[C@H]3CC[C@H](N)CC3)c2)cc1
## Output 0.0

## Input Follow-up entry: N=C(N)c1ccc(Oc2cc(Oc3ccc(N)nc3)cc(C(=O)N[C@H]3CC[C@H](N)CC3)c2)cc1
## Output 0.0

## Input Follow-up entry: N=C(N)c1ccc(Oc2cc(NS(=O)(=O)c3ccc4ccccc4c3)cc(Oc3ccc(C(=N)N)cc3)c2)cc1
## Output 0.0

## Input Follow-up entry: N=C(N)c1ccc(Oc2cc(Oc3ccc(CN)cc3)cc(C(=O)N[C@H]3CC[C@H](N)CC3)c2)cc1
## Output 0.0

## Input Follow-up entry: N=C(N)c1ccc(Oc2cc(Oc3ccc(NC(=O)CCN)cc3)cc(C(=O)N[C@H]3CC[C@H](N)CC3)c2)cc1
## Output 0.0

---

Target: Trypsin (Homo sapiens, UniProt P07477+P07478+P35030)
Experiment: Inhibition of human pancreas Trypsin using Boc-Gln-Ala-Arg-7-amido-4-methyl coumarin hydrobromide
Type: protein assay
Provide the recorded Ki for the entries that follow.
Form entry: enter the amount, then its unit.

## Input Form: Entry = N=C(N)c1ccc(COc2cc(Oc3ccc(C(=N)N)cc3)cc(C(=O)N[C@H]3CC[C@H](N)CC3)c2)cc1 | System = Trypsin (Homo sapiens, UniProt P07477+P07478+P35030) | Ki = ____
## Output 1868 nM

## Input Follow-up entry: N=C(N)c1ccc(Oc2cc(Oc3ccc(C(=N)N)cc3)cc(C(=O)NC3CCCCC3)c2)cc1
## Output 179 nM

## Input Follow-up entry: N=C(N)c1ccc(Oc2cc(Oc3ccc(C(=N)N)cc3)cc(C(=O)NCC3CCCCC3)c2)cc1
## Output 571 nM

## Input Follow-up entry: N=C(N)c1ccc(Oc2cc(Oc3ccc(C(=N)N)cc3)cc(C(N)=O)c2)cc1
## Output 640 nM
